experiment: in vitro; settings: human, Caco-2
result type: efflux ratio
Quick one: just the number, no unit, thanks!

Q) What does the record list as efflux ratio for CO[C@H]1/C=C/O[C@@]2(C)Oc3c(C)c(O)c4c(c3C2=O)C2=NC3(CCN(CC(C)C)CC3)NC2=C(NC(=O)/C(C)=C\C=C\[C@H](C)[C@H](O)[C@@H](C)[C@@H](O)[C@@H](C)[C@H](OC(C)=O)[C@@H]1C)C4=O [Rifabutin] ?
A) 0.648

* * *

system: CYP3A4; assay: in vitro; settings: human
result type: fold induction
I'd appreciate a reply containing only the number, no unit.

Q) Endpoint output: fold induction of CO[C@H]1/C=C/O[C@@]2(C)Oc3c(C)c(O)c4c(c3C2=O)C2=NC3(CCN(CC(C)C)CC3)NC2=C(NC(=O)/C(C)=C\C=C\[C@H](C)[C@H](O)[C@@H](C)[C@@H](O)[C@@H](C)[C@H](OC(C)=O)[C@@H]1C)C4=O [Rifabutin] . Value?
A) 2.36

The origin of these recorded values is paper PMC10766536.
